# System: HEK-293T
# ASSAY_OVERVIEW: Multiplex assay against HEK293T
# Assay type: toxicity, cell-based
# MEASUREMENT_PARAMETERS: human, 12 h, 1 µM, compound concentration 1 uM, replicate 2
MEASUREMENT_LABEL: Population Hoechst High Intensity Objects (%)
Give a bare numeral; the unit % is implied.

// query Endpoint output: Population Hoechst High Intensity Objects (%) of CCn1c(-c2nonc2N)nc2cnc(Oc3cccc(NC(=O)c4ccc(OCCN5CCOCC5)cc4)c3)cc21 [GSK-269962A] . Value?
// result 6

// query I'd like to know its Population Hoechst High Intensity Objects (%). The compound in question is "Cc1cn(-c2cc(NC(=O)c3ccc4c(c3)CN(c3cncnc3)C[C@@H]4C)cc(C(F)(F)F)c2)cn1"
// result 3

// query Requested field: Population Hoechst High Intensity Objects (%). Item: CC(C)(C)c1cnc(CSc2cnc(NC(=O)C3CCNCC3)s2)o1 [BMS-387032]
// result 4

// query Given the compound CNC(=O)c1cc(Oc2ccc(NC(=O)Nc3cc(C(C)(C)C)nn3-c3ccc4ncccc4c3)c(F)c2)ccn1 [REBASTINIB] , what is its reported Population Hoechst High Intensity Objects (%)?
// result 4

// query What does the data say about its Population Hoechst High Intensity Objects (%)? Entry: CCCn1c(=O)c2[nH]c(C34CC5CC(CC3C5)C4)nc2n(CCC)c1=O [ROLOFYLLINE]
// result 4

// query Entry O=C(O)c1ccc2cc(-c3ccc(O)c(C45CC6CC(CC(C6)C4)C5)c3)ccc2c1 [O-DEMETHYLATED ADAPALENE] has what Population Hoechst High Intensity Objects (%)?
// result 4

// query Which Population Hoechst High Intensity Objects (%) reading was recorded for the compound CN(C)CCOc1ccc(-c2nc(-c3ccncc3)c(-c3ccc4c(c3)CC/C4=N\O)[nH]2)cc1 [SB590885] ?
// result 12

// query Which Population Hoechst High Intensity Objects (%) is reported for this compound? CCOc1cc2ncc(C#N)c(Nc3ccc(OCc4cccc(F)c4)c(Cl)c3)c2cc1NC(=O)/C=C/CN(C)C [HKI-357]
// result 1

// query Query (compound): "Cl.Cl.Nc1ncnc2c1c(-c1cccc(OCc3ccccc3)c1)cn2[C@H]1C[C@@H](CN2CCC2)C1" ; field requested: Population Hoechst High Intensity Objects (%)
// result 10

// query What does the data say about its Population Hoechst High Intensity Objects (%)? Entry: "COc1cc2c(Nc3ccc(NC(=O)c4ccccc4)cc3)ncnc2cc1OCCCN1CCOCC1"
// result 6

// query Form field: reported Population Hoechst High Intensity Objects (%) of "c1ccc2oc(-c3csc(C4CCN(Cc5nc6ncccc6[nH]5)CC4)n3)cc2c1"
// result 4

// query # query: Population Hoechst High Intensity Objects (%) of entry "CCOc1cc(N2CCC(O)CC2)ccc1Nc1ncc2c(n1)N(C1CCCC1)CCC(=O)N2C"
// result 2

// query Any idea what Population Hoechst High Intensity Objects (%) was measured for CN(C)C/C=C/C(=O)Nc1cc2c(Nc3ccc(F)c(Cl)c3)ncnc2cc1O[C@H]1CCOC1.O=C(O)/C=C\C(=O)O.O=C(O)/C=C\C(=O)O [AFATINIB DIMALEATE] ?
// result 3

// query Please look up its Population Hoechst High Intensity Objects (%): CC(C)Oc1ccc(C(=O)N[C@H](CNC(=O)CN(C)C)Cc2ccc(-c3cn4cccc([C@H](C)O)c4n3)cc2)cc1Cl [GSK-923295A]
// result 2

// query Find the recorded Population Hoechst High Intensity Objects (%) belonging to Cc1nc(Cc2cccc(C(F)(F)F)c2)sc1-c1ccc(C(N)=O)nc1 [TP-024n] and report it.
// result 5

// query // Population Hoechst High Intensity Objects (%) lookup, key: CNC(=O)c1nn(C)c2c1C(C)(C)Cc1cnc(Nc3ccc(N4CCN(C)CC4)cc3)nc1-2 [MILCICLIB]
// result 9
